Assay: Lipophilicity, log D of the compound at pH 7.4
Assay type: physicochemical
Conditions: buffer
Respond with 1 for logD values of 3 and above, 0 for values below.

compound: Cc1c(C(C)OC(=O)Nc2ccccc2)sc2nccn12 (stereo unspecified)
category: 0
--
compound: Cc1c(C(C)OC(=O)Nc2cccnc2)sc2ncnn12 (stereo unspecified)
category: 0
--
compound: Cc1c(C(C)OC(=O)Nc2cccc(F)c2)sc2nncn12 (stereo unspecified)
category: 0
--
compound: Cc1c(C(C)OC(=O)Nc2cccc(F)c2)sc2ncnn12 (stereo unspecified)
category: 0
--
compound: Cc1c(C(C)OC(=O)Nc2cccc(Cl)c2)sc2ncnn12 (stereo unspecified)
category: 0
--
compound: Cc1c(C(C)OC(=O)Nc2ccccc2)sc2nc(-c3cccs3)nn12 (stereo unspecified)
category: 1
